Recorded PBM binding z-score values for a group of sequences are listed next.
# System: RXRa homodimer (NR concentration 180 nM)
# measurement_notes: PBM binding z-score (relative to random genomic background probes); higher = stronger binding; sequences stand for … in GC…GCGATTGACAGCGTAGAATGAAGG
No unit in the answer, please; the number alone is enough.

Example entries begin here.
> print(dat)
                  biopolymer.sequence                             tested.target       property.label  measured.result
1  CAGACAGGGTCAGCTAGGCCAGAGTAGGGACGGC  RXRa homodimer (NR concentration 180 nM)  PBM binding z-score             4.42
2  CCTAGCAGGCCAGGGTCACTAAAGCATTTCGCTT  RXRa homodimer (NR concentration 180 nM)  PBM binding z-score             2.89
3  CCTGCTAGGTCATGGTCAGCAAATCTACAGTATG  RXRa homodimer (NR concentration 180 nM)  PBM binding z-score             2.84
4  CAAACTAGGTCAAGAGGTCAGAGTCCGCTTCCCG  RXRa homodimer (NR concentration 180 nM)  PBM binding z-score              6.9

query: Param readout= PBM binding z-score; system= RXRa homodimer (NR concentration 180 nM); entry= CCTACTGGGCCAATGGTCATTGATTCCAATGCTC ; returns value.
result: -0.164

query: Same thing, different sequence: TTACCAAGGTGAAAGGTCGCTGATGCACGCCTTG
result: 5.52

query: Same thing, different sequence: CCTACTGGGCCATTCAGAGGTCCTTGATCATATG
result: -0.29

query: Same thing, different sequence: CCTACTGGGCCACGAAAGGTCAATGATTCAGTGA
result: 4.81

query: Same thing, different sequence: TAGCCTAGGTCAATGGGCCAGTATAGTACGCATC
result: 2.12

query: Same thing, different sequence: CGAACGAGGGCATGAGTTGATAGCCAATGCCGAT
result: 1

query: Same thing, different sequence: CCAGACAGGTGAGAGGGTAACTCAGCCTCGATTA
result: 0.666

query: Same thing, different sequence: ACAGACTGGTGATGAAGGTAACTCAGGCTATCAT
result: -0.393
